Experiment: Hydrolysis of Pertuzumab conjugated samples obtained using different small molecule compounds, hydrolysis percentage by Native MS
Type: physicochemical
Details: hydrolysis system D: 50 mM tromethamine-hydrochloric acid buffer, pH 7.8; 3 h
PARAMETER MEASURED: 3 h hydrolysis percentage (%)
The reply should contain only the number, in %.

Asked: What measured 3 h hydrolysis percentage goes with CCC(C)[C@@H]([C@@H](CC(=O)N1CCC[C@H]1[C@H](OC)[C@@H](C)C(=O)N[C@H](C)[C@@H](O)c1ccccc1)OC)N(C)C(=O)[C@@H](NC(=O)[C@H](C(C)C)N(C)C(=O)OCc1ccc(NC(=O)[C@H](CCCNC(N)=O)NC(=O)[C@@H](NC(=O)COCCOCCOCCOc2c(F)cc(N3C(=O)C(Sc4ccc(C(=O)N5CCOCC5)cc4)=C(Sc4ccc(C(=O)N5CCOCC5)cc4)C3=O)cc2F)C(C)C)cc1)C(C)C (stereo partly shown) ?
Given back: 99.34

Asked: Dear colleague, I am looking for the recorded 3 h hydrolysis percentage of the following compound: CCC(C)[C@@H]([C@@H](CC(=O)N1CCC[C@H]1[C@H](OC)[C@@H](C)C(=O)N[C@H](C)[C@@H](O)c1ccccc1)OC)N(C)C(=O)[C@@H](NC(=O)[C@H](C(C)C)N(C)C(=O)OCc1ccc(NC(=O)[C@H](CCCNC(N)=O)NC(=O)[C@@H](NC(=O)COCCOCCOCCOc2ccc(N3C(=O)C(Sc4ccc(C(=O)N5CCOCC5)cc4)=C(Sc4ccc(C(=O)N5CCOCC5)cc4)C3=O)cc2)C(C)C)cc1)C(C)C (stereo partly shown)
Given back: 99.79

Asked: Data request, read-out 3 h hydrolysis percentage, for CCC(C)[C@@H]([C@@H](CC(=O)N1CCC[C@H]1[C@H](OC)[C@@H](C)C(=O)N[C@H](C)[C@@H](O)c1ccccc1)OC)N(C)C(=O)[C@@H](NC(=O)[C@H](C(C)C)N(C)C(=O)OCc1ccc(NC(=O)[C@H](CCCNC(N)=O)NC(=O)[C@@H](NC(=O)COCCOCCOCCOc2ccc(N3C(=O)C(Sc4ccc(C(=O)NC)cc4)=C(Sc4ccc(C(=O)NC)cc4)C3=O)cc2OC)C(C)C)cc1)C(C)C (stereo partly shown)
Given back: 36.43

Asked: Which measured 3 h hydrolysis percentage value corresponds to CCC(C)[C@@H]([C@@H](CC(=O)N1CCC[C@H]1[C@H](OC)[C@@H](C)C(=O)N[C@H](C)[C@@H](O)c1ccccc1)OC)N(C)C(=O)[C@@H](NC(=O)[C@H](C(C)C)N(C)C(=O)OCc1ccc(NC(=O)[C@H](CCCNC(N)=O)NC(=O)[C@@H](NC(=O)COCCOCCOCCOc2ccc(N3C(=O)C(Sc4ccccc4)=C(Sc4ccccc4)C3=O)c(C(F)(F)F)c2)C(C)C)cc1)C(C)C (stereo partly shown) ?
Given back: 25.32
